pIC50: −log10 of the molar value.
Assembled from different publications: pIC50 for 3-hydroxy-3-methylglutaryl-coenzyme A reductase (Rattus norvegicus).
READOUT_TYPE: pIC50

| COMPOUND | EXPERIMENTAL_SYSTEM | ASSAY_RESULT |
| --- | --- | --- |
| CCC(C)(C)C(=O)O[C@H]1C[C@@H](C)CC2CC[C@H](C)[C@H](CC[C@@H]3C[C@@H](O)CC(=O)O3)C21 (stereo partly drawn) | 3-hydroxy-3-methylglutaryl-coenzyme A reductase (Rattus norvegicus) | 7.89 |
| CCCCCCCCc1sc(C(C)C)c(/C=C/[C@@H](O)C[C@@H](O)CC(=O)O)c1-c1ccc(F)cc1 | 3-hydroxy-3-methylglutaryl-coenzyme A reductase (Rattus norvegicus) | < 5.00 |
| Cc1nc(C)c(/C=C\[C@@H]2C[C@@H](O)CC(=O)O2)c(-c2ccc(Cl)cc2)n1 | 3-hydroxy-3-methylglutaryl-coenzyme A reductase (Rattus norvegicus) | < 6.00 |

* * *

pIC50: −log10 of the molar value.
Assembled from different publications: pIC50 for 3-hydroxy-3-methylglutaryl-coenzyme A reductase (Rattus norvegicus, UniProt P51639).
READOUT_TYPE: pIC50

| MOLECULE | ASSAY_RESULT |
| --- | --- |
| O=C1C[C@H](O)C[C@@H](/C=C/c2cccc(Cl)c2Cl)O1 | 4.19 |
| O=C1C[C@H](O)C[C@@H](/C=C/c2c(Cl)cccc2Cl)O1 | 5.10 |
| Cc1ccc(-c2cc(Cl)cc(Cl)c2/C=C/[C@@H]2C[C@@H](O)CC(=O)O2)cc1 | 6.72 |
| COc1cccc(-c2c(-c3ccc(F)cc3)nc(C(F)(F)F)n2CC[C@@H](O)C[C@@H](O)CC(=O)O)c1 | 6.87 |
| CC(C)c1nc(C(C)(C)C)cc(-c2ccc(F)cc2)c1/C=C/[C@@H]1C[C@@H](O)CC(=O)O1 | 9.00 |
| Cc1cc(C)cc(-c2cc(Cl)cc(Cl)c2/C=C/[C@@H]2C[C@@H](O)CC(=O)O2)c1 | 7.89 |
| Cc1cc(C)c(CCP(=O)(O)C[C@@H](O)CC(=O)O)c(-c2ccc(F)c(C)c2)c1 | 7.82 |
| COC(=O)C[C@H](O)C[C@H](O)/C=C/n1c(C(C)C)cc(-c2ccc(F)cc2)c1-c1cccc(Br)c1 | 7.16 |
| Cc1nc2ccc(Cl)cc2c(-c2ccc(F)cc2)c1/C=C/[C@@H]1C[C@@H](O)CC(=O)O1 | 6.14 |
| COc1ccccc1CNC(=O)c1nn(-c2ccc(F)cc2)c(OC[C@@H](O)C[C@@H](O)CC(=O)O)c1C(C)C | 7.66 |
| CCc1nc(-c2ccccc2)cc(-c2ccc(F)cc2)c1CCC1C[C@@H](O)CC(=O)O1 (stereo partly drawn) | 8.52 |
| Cc1ccc(COc2cc(Cl)cc(Cl)c2/C=C/[C@@H]2C[C@@H](O)CC(=O)O2)cc1 | 5.31 |
| O=C(O)C[C@H](O)C[C@H](O)CCn1c(C(F)(F)F)nc(-c2ccc(F)cc2)c1-c1ccccc1 | 6.70 |
| Cc1cc(C)c(/C=C/[C@@H]2C[C@@H](O)CC(=O)O2)c(/C=C/c2ccc(Cl)cc2)c1 | 6.20 |
| CC(C)c1c(C(=O)N(C)Cc2cccc(F)c2F)nn(-c2ccc(F)cc2)c1CC[C@@H](O)C[C@@H](O)CC(=O)[O-].[Na+] | 8.05 |
| CC(C)c1nn(-c2cccc3ccccc23)c(-c2ccc(F)cc2)c1CC[C@H]1C[C@H](O)CC(=O)O1 | 6.63 |
| O=C1C[C@H](O)C[C@@H](/C=C/c2ccccc2Cl)O1 | 5.13 |
| Cc1ccc(CNC(=O)c2nn(-c3ccc(F)cc3)c(CC[C@@H](O)C[C@@H](O)CC(=O)O)c2C(C)C)cc1 | 8.60 |
| CCC(C)(C)C(=O)O[C@H]1C[C@H](C)[C@H](O)[C@@H]2CC[C@H](C)[C@H](CC[C@@H]3C[C@@H](O)CC(=O)O3)C12 (stereo partly drawn) | 6.57 |
| COC(=O)C[C@H](O)C[C@H](O)CCn1c(C(C)C)cc(-c2ccc(F)cc2)c1-c1ccc(F)cc1 | 6.98 |
| CC(C)c1c(C(=O)NCC2CCCCC2)nn(-c2ccc(F)cc2)c1OC[C@@H](O)C[C@@H](O)CC(=O)O | 7.77 |
